Reported IC50 values are given for each entry in this list.
system: T1, 6His-Fc-FGFR1c (human, UniProt P11362 141-376)
T1 construct: not shown: 6His tag and Fc as named in '6His-Fc-FGFR'
T1 sequence: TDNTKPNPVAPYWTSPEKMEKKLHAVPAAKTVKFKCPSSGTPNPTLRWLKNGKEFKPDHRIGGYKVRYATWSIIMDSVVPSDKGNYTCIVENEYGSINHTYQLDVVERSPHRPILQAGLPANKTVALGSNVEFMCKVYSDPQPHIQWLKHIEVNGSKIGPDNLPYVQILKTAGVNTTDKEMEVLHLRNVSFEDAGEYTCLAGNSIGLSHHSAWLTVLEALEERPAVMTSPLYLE
experiment_summary: competition ELISA, blocks 6His-Fc-FGFR1c binding to coated FGF2
Quick reminder: number only, in nM, skip the unit.

- Ab72 (antibody, human IgG2, kappa, V domains shown, format in the assays not spelled out) VH: EVQLLESGGGVVQPGRSLRLSCAASGFTFSSYAMHWVRQAPGKGLEWVAVISYDGSNKYYADSVKGRFTISRDNSKNTLSLQMNSLRVEDTAIYYCVRGAGMGLTYGPDGFDIWGQGTMVTVSS VL: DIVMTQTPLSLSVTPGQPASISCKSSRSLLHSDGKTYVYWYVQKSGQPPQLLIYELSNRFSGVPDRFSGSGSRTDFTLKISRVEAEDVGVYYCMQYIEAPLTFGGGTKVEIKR: 1.77
- Ab21 (antibody, human IgG2, kappa, V domains shown, format in the assays not spelled out) VH: EVQLLESGGGVVQPGRSLRLSCAASGFTFSSYAMHWVRQAPGKGLEWVAVISYDGSNKYYADSVKGRFTISRDNSKNTLSLQMNSLRVEDTAIYYCVRGAGLGWPYGPDGFDIWGQGTMVTVSS VL: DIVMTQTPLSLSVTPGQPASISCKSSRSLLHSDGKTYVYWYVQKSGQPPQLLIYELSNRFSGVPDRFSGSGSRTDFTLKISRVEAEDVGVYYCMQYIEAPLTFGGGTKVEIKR: 5.54

Would you kindly look at the next entry?
I am curious: what IC50 value has been reported for Ab43 (antibody, human IgG2, kappa, V domains shown, format in the assays not spelled out) VH: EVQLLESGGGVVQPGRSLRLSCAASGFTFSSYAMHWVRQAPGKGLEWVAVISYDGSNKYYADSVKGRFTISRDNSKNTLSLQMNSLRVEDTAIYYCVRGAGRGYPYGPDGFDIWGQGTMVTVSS VL: DIVMTQTPLSLSVTPGQPASISCRSSRSLLHSDGKTYVYWYVQKSGQPPQLLIYELSNRFSGVPDRFSGSGSRTDFTLKISRVEAEDVGVYYCMQYIEAPLTFGGGTKVEIKR ?
6.62
